Biological target: PDE4B (Homo sapiens, UniProt Q07343)
Sequence (Q07343 whole entry, species assumed): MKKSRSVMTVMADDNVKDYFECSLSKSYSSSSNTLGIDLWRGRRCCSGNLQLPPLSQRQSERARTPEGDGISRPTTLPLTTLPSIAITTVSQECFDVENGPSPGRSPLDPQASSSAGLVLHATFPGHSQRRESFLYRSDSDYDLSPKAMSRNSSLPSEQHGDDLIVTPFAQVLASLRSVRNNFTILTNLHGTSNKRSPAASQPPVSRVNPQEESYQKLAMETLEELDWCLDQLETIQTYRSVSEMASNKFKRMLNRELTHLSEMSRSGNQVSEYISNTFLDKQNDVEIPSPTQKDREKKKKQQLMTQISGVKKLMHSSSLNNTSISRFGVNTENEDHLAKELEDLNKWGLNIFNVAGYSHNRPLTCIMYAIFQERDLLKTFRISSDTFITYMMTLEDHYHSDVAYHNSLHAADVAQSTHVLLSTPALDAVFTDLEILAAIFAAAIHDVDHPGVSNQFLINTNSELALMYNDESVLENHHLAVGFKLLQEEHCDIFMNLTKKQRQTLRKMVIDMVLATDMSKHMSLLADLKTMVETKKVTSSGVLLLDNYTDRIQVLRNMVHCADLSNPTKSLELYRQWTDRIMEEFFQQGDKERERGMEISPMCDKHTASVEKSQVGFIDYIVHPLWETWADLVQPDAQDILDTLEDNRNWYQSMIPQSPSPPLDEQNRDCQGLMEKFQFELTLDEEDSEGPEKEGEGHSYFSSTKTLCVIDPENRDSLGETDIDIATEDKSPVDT
Assay: Scintillation Proximity Assay (SPA) of PDE4B enzyme activity ([H3]-cAMP cleavage)
Assay type: biochemical
Conditions: test substance 1 μM; one-hour incubation with [H3]-cAMP at 30° C.
Mark False for inhibition at 1 µM values under 90%, and True for everything at or above.

Does CC(=O)NCC1(c2ccccc2)CCN(c2nc3c(c(N[C@H]4CCC(=O)N(C)C4)n2)[S+]([O-])CC3)CC1 (stereo partly drawn) have a reported inhibition at 1 µM of at least 90%?
True

Param item: Cn1nc(-c2ccco2)cc1C1CCN(c2nc3c(c(NC4CCOCC4)n2)[S+]([O-])CC3)CC1 (stereo not drawn)
True

Also Cc1nc(C2CCN(c3nc4c(c(NC5CCOCC5)n3)[S+]([O-])CC4)CC2)oc1-c1ccc(Cl)cc1 (stereo not drawn) , if possible.
False

# iterate: CC(C)c1noc(C2CCN(c3nc4c(c(N[C@H]5CCC(=O)N(C)C5)n3)[S+]([O-])CC4)CC2)n1 (stereo partly drawn)
True

Please give the result for O=C(N1CCc2ccc(OC3CCN(c4nc5c(c(NC6CCOCC6)n4)[S+]([O-])CC5)CC3)cc2CC1)C(F)(F)F (stereo not drawn) too.
False

Now give it for [O-][S+]1CCc2nc(N3CCC(Oc4ccccc4Cl)CC3)nc(NC3CCOCC3)c21 (stereo not drawn) too.
False

Continuing:
Check this molecule for inhibition at 1 µM at or above 90%: CN1C[C@@H](Nc2nc(N3CCC(c4nc5ccc(Cl)cc5o4)CC3)nc3c2[S+]([O-])CC3)CCC1=O (stereo partly drawn)
True

Can you handle CN(C(=O)c1cccc(C2CCN(c3nc4c(c(NC5CCOCC5)n3)[S+]([O-])CC4)CC2)c1)C1CC1 (stereo not drawn) next?
True

Then this molecule: [O-][S+]1CCc2nc(N3CCC(Oc4ccccn4)CC3)nc(NC3CCOCC3)c21 (stereo not drawn)
True
